test system: production of amyloid beta protein Aβ(1-42) in human WT-APP overexpressing CHO cells; settings: Homo sapiens, CHO, read-out: GM Aβ 42B IC50, Geometric Mean of 2-8 Determinations; human WT-APP overexpressing CHO cells;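 note: Aβ(1-42) released into conditioned medium captured by ELISA after roughly 24 h compound exposure, vehicle and inhibitor controls defining maximal and minimal inhibition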
Counter-ions that a name gives are not always drawn.
metric: IC50 (nM)
Just the number in nM, nothing appended.

{"molecule": "Cc1cn(-c2ccc(C(=O)NCC3(c4cccc(C(F)(F)F)c4)CCOCC3)cc2F)cn1 [Example 7, formic acid salt]", "test_result": 2190}
{"molecule": "COc1cc(C(=O)NCc2nnc(-c3cccc(Cl)c3)o2)ccc1-n1cnc(C)c1", "test_result": 1460}
{"molecule": "Cc1cn(-c2ccc(C(=O)NCCc3cccc(Cl)c3)cc2F)cn1", "test_result": 960}
{"molecule": "C#CCOc1cc(C(=O)NCCc2cccc(Cl)c2)ccc1-n1cnc(C)c1", "test_result": 341}
{"molecule": "COc1cc(C(=O)NCC(C)(O)c2ccc(Cl)cc2)ccc1-n1cnc(C)c1 (centres unmarked)", "test_result": 942}
{"molecule": "COc1cc(C(=O)NCCc2cccc(C#N)c2)ccc1-n1cnc(C)c1", "test_result": 2920}
{"molecule": "COc1cc(C(=O)NCc2cc(-c3cccc(Cl)c3)no2)ccc1-n1cnc(C)c1", "test_result": 330}

Request: Please give the documented IC50 of COc1cc(C(=O)NCCc2cccc(Cl)c2)ccc1-n1cnc(C)n1
Response: 4210

Reference source for all entries: patent US20120053165A1
